Biological target: T1, cyno CD137-Fc (cynomolgus monkey; human, limits assumed, biotin-labeled)
T1 construct: whole entry 92 named; also called biotin-labeled cynomolgus monkey CD137 fused to human IgG1 Fc fragment; not shown: human IgG1 Fc fragment
T1 chain: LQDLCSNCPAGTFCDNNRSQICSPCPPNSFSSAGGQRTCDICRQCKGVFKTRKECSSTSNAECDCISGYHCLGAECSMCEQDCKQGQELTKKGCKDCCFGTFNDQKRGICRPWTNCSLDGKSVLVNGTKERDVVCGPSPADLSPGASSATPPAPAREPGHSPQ
Test: bead ELISA, IgG on biotinylated antigen, luminescence;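 further: biotinylated antigen captured on streptavidin magnetic beads, then incubated with purified IgG at 50 ng/µL for 1 h at room temperature before detection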
readoutKind: RLU
Provide a numeric answer, followed by its unit.

The reported value for DADU01_3#018 (antibody, V domains shown, Human IgG1; light chain GLS3000 (kappa); also called dBBDu123) VH: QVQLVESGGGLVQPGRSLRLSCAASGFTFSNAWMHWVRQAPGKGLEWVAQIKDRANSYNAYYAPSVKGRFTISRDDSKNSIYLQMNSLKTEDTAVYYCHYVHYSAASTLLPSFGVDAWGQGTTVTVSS VL: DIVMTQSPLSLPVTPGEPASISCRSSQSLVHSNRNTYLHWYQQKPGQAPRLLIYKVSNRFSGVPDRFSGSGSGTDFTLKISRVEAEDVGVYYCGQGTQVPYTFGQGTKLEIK in terms of RLU is 6200 RLU
